TEST SYSTEM: type VI-S porcine pancreatic lipase (Sus scrofa)
Construct: purchased Sigma type VI-S (catalogue number not given)
Sequence (P00591 whole entry): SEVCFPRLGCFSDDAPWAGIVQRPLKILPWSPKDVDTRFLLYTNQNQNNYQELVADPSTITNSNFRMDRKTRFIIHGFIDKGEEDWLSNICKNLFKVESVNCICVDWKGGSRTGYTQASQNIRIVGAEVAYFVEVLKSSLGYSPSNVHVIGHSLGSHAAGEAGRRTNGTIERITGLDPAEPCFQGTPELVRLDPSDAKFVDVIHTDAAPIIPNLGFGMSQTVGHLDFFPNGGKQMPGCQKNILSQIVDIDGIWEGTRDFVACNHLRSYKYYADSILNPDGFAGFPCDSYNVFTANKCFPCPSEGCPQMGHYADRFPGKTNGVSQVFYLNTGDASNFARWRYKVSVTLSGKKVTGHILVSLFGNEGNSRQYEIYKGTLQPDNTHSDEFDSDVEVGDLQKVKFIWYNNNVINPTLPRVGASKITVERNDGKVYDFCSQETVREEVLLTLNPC
TEST PROTOCOL: Pancreatic lipase assay (pH-stat titration, triolein substrate)
Assay type: biochemical
Design: unit not given here
CONDITION SET: 7.0 nM lipase, 700 nM inhibitor, pH 8.0; Ymax of the fit Y=Ymax*(1-exp(-k*X))
REPORTED ENDPOINT: Ymax

[[record]]
smiles_representation = "CCCCCCCCNc1nc2sc(CCCC)cc2c(=O)o1"
test_system = "type VI-S porcine pancreatic lipase (Sus scrofa)"
reported_endpoint = "Ymax"
test_result = 10.091

[[record]]
smiles_representation = "CCCCCCCCNc1nc2sc(C(=O)OC(CCCC)CCCC)c(C)c2c(=O)o1"
test_system = "type VI-S porcine pancreatic lipase (Sus scrofa)"
reported_endpoint = "Ymax"
test_result = 0.156

[[record]]
smiles_representation = "CCCCCCCCNc1nc2sc(C(=O)N(CCCCCCCC)CCCCCCCC)c(C)c2c(=O)o1"
test_system = "type VI-S porcine pancreatic lipase (Sus scrofa)"
reported_endpoint = "Ymax"
test_result = 0.130

[[record]]
smiles_representation = "CCCCCCCCOc1nc2sc(CCCC)cc2c(=O)o1"
test_system = "type VI-S porcine pancreatic lipase (Sus scrofa)"
reported_endpoint = "Ymax"
test_result = 0.054

[[record]]
smiles_representation = "CCCCCCCCOc1nc2sc(C(C)C)cc2c(=O)o1"
test_system = "type VI-S porcine pancreatic lipase (Sus scrofa)"
reported_endpoint = "Ymax"
test_result = 0.161

[[record]]
smiles_representation = "CCCCCCCCNc1nc2sc(C(=O)N(CCCCCC)CCCCCC)c(C)c2c(=O)o1"
test_system = "type VI-S porcine pancreatic lipase (Sus scrofa)"
reported_endpoint = "Ymax"
test_result = 0.124

[[record]]
smiles_representation = "CCCCCCCCNc1nc2sc(C(=O)NC3CCCCC3)c(C)c2c(=O)o1"
test_system = "type VI-S porcine pancreatic lipase (Sus scrofa)"
reported_endpoint = "Ymax"
test_result = 0.045

[[record]]
smiles_representation = "CCCCCCCCNc1nc2sc(C(=O)N3CCN(CC(=O)NC(C)C)CC3)c(C)c2c(=O)o1"
test_system = "type VI-S porcine pancreatic lipase (Sus scrofa)"
reported_endpoint = "Ymax"
test_result = 3.917

[[record]]
smiles_representation = "CCCCCCCCCCCc1nc2sc(CCCCCCC)cc2c(=O)o1"
test_system = "type VI-S porcine pancreatic lipase (Sus scrofa)"
reported_endpoint = "Ymax"
test_result = 10.973


* * *

TEST SYSTEM: type VI-S porcine pancreatic lipase (Sus scrofa)
Construct: purchased Sigma type VI-S (catalogue number not given)
TEST PROTOCOL: Pancreatic lipase assay (pH-stat titration, triolein substrate)
Type: biochemical
CONDITION SET: 7.0 nM lipase, 700 nM inhibitor, pH 8.0; k fitted for the 12.5 min after inhibitor addition, Y=Ymax*(1-exp(-k*X))
Known k of a selection of compounds
REPORTED ENDPOINT: k

[[record]]
compound = "CCCCCCCCOc1nc2sc(CCCC)cc2c(=O)o1 [Entry 75]"
reported_endpoint = "k"
test_result = "2.219 10-3.s-1"

[[record]]
compound = "CCCCCCCCNc1nc2sc(C(=O)NCC(=O)OCc3ccccc3)c(C)c2c(=O)o1 [Entry 48]"
reported_endpoint = "k"
test_result = "0.440 10-3.s-1"

[[record]]
compound = "CCCCCCCCNc1nc2sc(C(=O)NCCCCCC)c(C)c2c(=O)o1 [Entry 27]"
reported_endpoint = "k"
test_result = "2.577 10-3.s-1"

[[record]]
compound = "CCCCCCCCOC(=O)c1sc2nc(Nc3ccc(Oc4ccccc4)cc3)oc(=O)c2c1C [Entry 19]"
reported_endpoint = "k"
test_result = "0.981 10-3.s-1"

[[record]]
compound = "CCCCCCCCOc1nc2sc(C(C)CC(C)(C)C)cc2c(=O)o1 (stereo not shown) [Entry 78]"
reported_endpoint = "k"
test_result = "1.315 10-3.s-1"

[[record]]
compound = "CCCCCCCCCCCc1nc2sc(CCCCCCC)cc2c(=O)o1 [Entry 67]"
reported_endpoint = "k"
test_result = "0.064 10-3.s-1"

[[record]]
compound = "CCCCCCCCNc1nc2sc(C(=O)NCc3ccncc3)c(C)c2c(=O)o1 [Entry 55]"
reported_endpoint = "k"
test_result = "0.754 10-3.s-1"

[[record]]
compound = "CCCCCCCCNc1nc2sc(CCCC)cc2c(=O)o1 [Entry 63]"
reported_endpoint = "k"
test_result = "0.074 10-3.s-1"

[[record]]
compound = "CCCCCCCCNc1nc2sc(C(=O)N(CCCCCCCC)CCCCCCCC)c(C)c2c(=O)o1 [Entry 41]"
reported_endpoint = "k"
test_result = "1.050 10-3.s-1"

[[record]]
compound = "CCCCCCCCNc1nc2sc(C(=O)OCc3ccccc3)c(C)c2c(=O)o1 [Entry 16]"
reported_endpoint = "k"
test_result = "1.711 10-3.s-1"

[[record]]
compound = "CCCCCCCCNc1nc2sc(Cc3ccccc3)cc2c(=O)o1 [Entry 62]"
reported_endpoint = "k"
test_result = "0.103 10-3.s-1"

[[record]]
compound = "CCCCCCCCNc1nc2sc(C(=O)N(C)Cc3cccc(C)n3)c(C)c2c(=O)o1 [Entry 49]"
reported_endpoint = "k"
test_result = "0.022 10-3.s-1"

[[record]]
compound = "CCCCCCCCNc1nc2sc(C(=O)NCCOc3ccccc3)c(C)c2c(=O)o1 [Entry 70]"
reported_endpoint = "k"
test_result = "1.999 10-3.s-1"

[[record]]
compound = "CCCCCCCCNc1nc2sc(C(=O)NCCCN(C)C)c(C)c2c(=O)o1 [Entry 46]"
reported_endpoint = "k"
test_result = "0.062 10-3.s-1"

[[record]]
compound = "CCCCCCCCNc1nc2sc(C(=O)NC(CCCC)CCCC)c(C)c2c(=O)o1 [Entry 45]"
reported_endpoint = "k"
test_result = "0.770 10-3.s-1"

[[record]]
compound = "CCCCCCCCCCCCNC(=O)c1sc2nc(NCCCCCCCC)oc(=O)c2c1C [Entry 29]"
reported_endpoint = "k"
test_result = "0.797 10-3.s-1"

[[record]]
compound = "CCCCC(CCCC)Nc1nc2sc(C(=O)OCc3ccccc3)c(C)c2c(=O)o1 [Entry 59]"
reported_endpoint = "k"
test_result = "0.222 10-3.s-1"

[[record]]
compound = "CCCCCCCCNc1nc2sc(C(=O)N3CCN(CCN4CCCCC4)CC3)c(C)c2c(=O)o1 [Entry 53]"
reported_endpoint = "k"
test_result = "0.166 10-3.s-1"

[[record]]
compound = "CCCCCCCCNc1nc2sc(C(=O)NCCc3cccnc3)c(C)c2c(=O)o1 [Entry 50]"
reported_endpoint = "k"
test_result = "0.719 10-3.s-1"


Source: patent US7064122B2
